Answer each item with its documented IC50.
tested on: HEK293 cells; assay: Glutamine uptake inhibition assay (3H-labeled glutamine accumulation in live cells); type: cell-based; details: Homo sapiens, 15 minutes incubation with 3H-GLN (500 nM), assay buffer pH 6, triplicate, read-out: ^3H Glut IC50
Express the result in µM but write the number alone.

Q. IC50 lookup needed for N[C@@H](CCN(Cc1ccccc1OCc1ccc(F)cc1)Cc1ccccc1Oc1ccc(Cl)cc1)C(=O)O , thanks.
A. 31.4

Q. Would you kindly repeat that for N[C@@H](CCN(Cc1ccccc1OCc1ccccc1F)Cc1ccccc1Oc1ccc(Cl)cc1)C(=O)O ?
A. 43

Q. Would you kindly repeat that for Cc1cccc(COc2ccccc2CN(CC[C@H](N)C(=O)O)Cc2ccccc2Oc2ccc(Cl)cc2)c1 ?
A. 25.1

Q. Would you kindly repeat that for COc1ccc(Oc2ccccc2CN(CC[C@H](N)C(=O)O)Cc2ccccc2OCc2ccc(Cl)cc2)cc1 ?
A. 164

Q. Would you kindly repeat that for COc1ccc(Oc2ccccc2CN(CC[C@H](N)C(=O)O)Cc2ccccc2OCc2ccc(F)cc2)cc1 ?
A. 29
